From: ChEMBL document CHEMBL4325895

Assay: Intrinsic clearance in mouse liver microsomes assessed per gram of protein at 0.1 uM after 60 mins in presence of NADPH by LC-MS/MS analysis
Type: ADME, Microsome
Details: 1 h
Item-by-item account of CLint
value_kind: CLint (mL/min/g)

INSERT INTO results (query_smiles, value_kind, unit_name, measured_number) VALUES
  ('C[C@H](F)[C@H]1COC(=O)N1c1ccnc(NC2(c3cn(-c4cccc(C(F)(F)F)c4)cn3)CC2)n1', 'CLint', 'mL/min/g', 430),
  ('C[C@H](F)[C@H]1COC(=O)N1c1ccnc(NC2(c3cn(-c4cc(F)cc(Cl)c4)cn3)CC2)n1', 'CLint', 'mL/min/g', 567),
  ('C[C@H](F)[C@H]1COC(=O)N1c1cc(Cl)nc(NC2(c3cn(-c4ccc(F)c(Cl)c4)cn3)CC2)n1', 'CLint', 'mL/min/g', 155),
  ('C[C@H](F)[C@H]1COC(=O)N1c1ccnc(NC2(c3cn(-c4ccc(F)c(Cl)c4)cn3)CC2)n1', 'CLint', 'mL/min/g', 185),
  ('C[C@H](F)[C@H]1COC(=O)N1c1nc(NC2(c3cn(-c4ccc(F)c(Cl)c4)cn3)CC2)ncc1F', 'CLint', 'mL/min/g', 95),
  ('C[C@H](F)[C@H]1COC(=O)N1c1ccnc(NC2(c3cn(-c4ccc(F)c(Cl)c4)cn3)CCC2)n1', 'CLint', 'mL/min/g', 505);
